target_system: PD-1/PD-L1 (Homo sapiens)
Construct: Recombinant human PD-L1 protein (19-238) with a His-tag at the C-terminus; purchased AcroBiosystems PD1-H5229 (PD-L1); PD1-H5257 (PD-1)
Sequence (Q9NZQ7 19-238): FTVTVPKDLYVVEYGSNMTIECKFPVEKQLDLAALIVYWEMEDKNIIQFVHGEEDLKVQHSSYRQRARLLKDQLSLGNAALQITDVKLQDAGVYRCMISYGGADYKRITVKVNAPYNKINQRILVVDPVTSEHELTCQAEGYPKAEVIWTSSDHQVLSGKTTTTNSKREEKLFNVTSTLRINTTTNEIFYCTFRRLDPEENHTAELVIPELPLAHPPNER
protocol_notes: PD-1/PD-L1 homogenous time-resolved fluorescence (HTRF) binding assay
experimental_parameters: recombinant human PD-L1 (19-238) His-tag / human PD-1 (25-167) Fc tag, class symbols

compound | IC50
Cc1c(NC(=O)c2ccc3c(n2)CCN(C)C3)cccc1-c1cccc(NC(=O)c2ccc3c(n2)CCN(C)C3)c1C | < 25 nM
Cc1c(NC(=O)c2nc3c(o2)CNCC3)cccc1-c1cccc(NC(=O)c2nc3c(o2)CNCC3)c1C | 25 to 100 nM
O=C(Nc1cccc(-c2cccc3c2CCN3C(=O)c2nc3c(s2)CNCC3)c1Cl)c1ncc(CNCCO)s1 | < 25 nM
NCc1nc(C(=O)N2CCc3c(-c4cccc5c4CCN5C(=O)c4n[nH]c(CN)n4)cccc32)n[nH]1 | 100 to 200 nM
Cc1c(Nc2nccc3cc(CNCCO)cnc23)cccc1-c1cccc(Nc2nccc3cc(CNCC(F)(F)F)cnc23)c1C | < 25 nM
Cc1c(-c2cccc(N(C)Cc3nc4ccc(N)cc4s3)c2C)cccc1N(C)Cc1nc2c(s1)CNCC2 | > 200 nM
O=C(c1nc2c(s1)CN(CCF)CC2)N1CCc2c(-c3cccc4c3CCN4C(=O)c3nc4c(s3)CN(CCF)CC4)cccc21 | < 25 nM
Cc1c(NC(=O)c2nc3c(s2)CN(CCCN2CCOCC2)CC3)cccc1-c1cccc(NC(=O)c2nc3c(s2)CN(CCCN2CCOCC2)CC3)c1C | < 25 nM
O=C(c1nc2c(s1)CNCC2)N1CCc2c(-c3cccc4c3CCN4c3nccc4cc(CNCCO)cnc34)cccc21 | < 25 nM
CCOC(=O)CN1CCc2nc(C(=O)Nc3cccc(-c4cccc(NC(=O)c5ccc6c(n5)CCNC6)c4C)c3C)ccc2C1 | < 25 nM
COC(=O)NC1(CN2CCc3nc(C(=O)N4CCc5c(-c6cccc7c6CCN7C(=O)c6nc7c(s6)CN(CC6(NC(=O)OC)CC6)CC7)cccc54)sc3C2)CC1 | 25 to 100 nM
Cc1nc(C(=O)Nc2cccc(-c3cccc(NC(=O)c4nc(C)c(CNCCO)s4)c3C)c2C)sc1CNCCO | < 25 nM
Cc1c(NC(=O)c2cc3c(s2)CCNC3)cccc1-c1cccc(NC(=O)c2nc3c(s2)CNCC3)c1C | < 25 nM
Cc1c(NC(=O)c2cnc(C(C)NCCO)cn2)cccc1-c1cccc(NC(=O)c2cnc(C(C)NCCO)cn2)c1C (centres unmarked) | < 25 nM
